Values were extracted from patent EP4339209A1.

- TEST TARGET: recombinant human GITR (Cat No. 13643-H08H, Lot No. LC12JA2509, Sino Biological) (human) (UniProt Q9Y5U5)
- METHOD NOTES: SPR Biacore 8K, single-cycle kinetics, IgG in supernatant captured on Protein A, GITR as analyte
QUANTITY KIND: koff (s⁻¹)
Give bare numbers, in s⁻¹.

Example entries begin here.
{"BINDER": "anti-GITR 51B VH3/VL1 humanized antibody (human IgG1, kappa) (antibody, V domains shown) VH: QVQLVQSGAEVKKPGASVKVSCKTTGYRFTGYWIEWVRQPPGKGLEWIGEILPGSGATYYSENFKGKVTITADTSTDTAYMELSSLRSEDTAIYYCARKGGYYAMDYWGQGTLVTVSS VL: QIVLTQSPAIMSASLGERVTMSCTASSSVSSSYFHWYQQKPGSAPKLWIYSTSNLASGVPDRFSGSGSGTDYTLTVSSLQAEDVATYYCHLYHRSPRTFGGGTTVDIKR", "UNIT STRING": "s⁻¹", "NUMERIC READOUT": 0.000543}
{"BINDER": "anti-GITR 51B VH5/VL4 humanized antibody (human IgG1, kappa) (antibody, V domains shown) VH: QVQLVQSGAEVKKPGASVKVSCKTTGYRFTGYWIDWVRQPPGKGLEWIGEILPGSGATYYSENFKGKVTITADTSTDTAYMELSSLRSEDTAIYYCARKGGYYAMDYWGQGTLVTVSS VL: EIVLTQSPATLSLSPGERATLSCTASSSVSSSYFHWYQQKPGKAPKLWIYSTSNLQSGVPDRFSGSGSGTDYTLTISSLQAEDVATYYCHLYHRSPRTFGGGTKVEIKR", "UNIT STRING": "s⁻¹", "NUMERIC READOUT": 0.00149}

# next binder below
So, anti-GITR 51B VH3/VL5 humanized antibody (human IgG1, kappa) (antibody, V domains shown) VH: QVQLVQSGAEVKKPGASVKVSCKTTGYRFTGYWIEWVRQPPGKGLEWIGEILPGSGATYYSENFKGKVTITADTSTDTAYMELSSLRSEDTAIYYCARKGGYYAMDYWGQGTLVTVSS VL: EIVLTQSPATLSLSPGERATLSCTASSSVSSSYFHWYQQKPGKAPKLWIYSTSNLESGVPDRFSGSGSGTDYTLTISSLQAEDVATYYCHLYHRSPRTFGGGTKVEIKR ? Its koff was 0.000507
